- test.target: pooled human IgG (human IgG1,2,3 and 4)
endpoint: Enzyme Activity Endpoint Assay (purified): scIgG (ng/µL)
Field: numeric (ng/µL). Do not append units.

Supply recorded Enzyme Activity Endpoint Assay (purified): scIgG for PRT-492 (protein) MVTSVWTKGVTPPTDFRKIVDGNIAYYHAPYKAGQGWYDITKAFDGGDNLLCGAATAGNMLHWWFDQNKEQIENYLKKHPEKQKIIFNNQELFDLKAAIDTKDSQTNSELFNYFKEKAFPYLSTKHLGVFPDHVIDMFINGYRLSLTNHGPTPVKRGSKDKRGGIFDAVFTRGVQSKLLTNRHDLKNKTLKEISDLIKQELTEGKALGISHTYANVRINHVINLWGADFDAEGNLEAIYVTDSDTNASIGMKKYFVGVNSNGKVAISAKEIEEDNIGAQVLGLFTLSTGQDIWNQTNLEHHHHHH here.
1020

With those in mind, consider the next protein.
Supply recorded Enzyme Activity Endpoint Assay (purified): scIgG for PRT-462 (protein) MVTSVWTKGVTPPTDFRKIVDGNIAYYHAPYKAGQGWYDITKAFDGGDDLLCGAATAGNMLHWWFDQNKDQIERYLKEHPEKQKINFNGEQMFDVKEAIDTKDSQTNSELFNYFKEKAFPYLSTKHLGVFPDHVLDMFINGYRLSLTNHGPTPVKEGSKDPRGGIFDAVFTRGDQSKLLTSRHDLKNKTLKEISDLIKQELTEGKALGLSHTYANVRINHVINLWGADFDSEGNLKAIYVTDSDSNASIGMKKYFVGVNSAGKVAISAKEIKEDNIGAQVLGLFTLSTGQDIWNQTNLEHHHHHH here.
0
